Where do these numbers come from? They come from PubChem BioAssay (NCATS).

Test: qHTS of pediatric cancer cell lines to identify multiple opportunities for drug repurposing: Primary screen for A673 cells (AID 1347092); also: nearly all actives have a fitted effect of over 45% in size
Details: A673 Ewing sarcoma viability, CellTiter-Glo ATP luminescence, 48 h; series mostly up to 46 µM
Records with an inconclusive call do not appear. Active and inactive are the calls of the source. Calls follow the shape of the dose curve; as a rule, active = well fitted cell-killing curve with a large enough effect; inconclusive = small, poorly fitted or top-dose-only effect; inactive = no such curve, though single readings can be large or run the other way.
Allowed answers: active, inactive

Given Clc1cccc(C(c2ccc3nc[nH]c3c2)n2ccnc2)c1 (centres undefined) , state the outcome it received in this test.
inactive

Given Cc1nc(-c2ccc(Cl)cc2)oc1COC(C)(C)C(=O)O , state the outcome it received in this test.
inactive

Given O=C(O)C(Cc1cc(I)c(O)c(I)c1)c1ccccc1 (centres undefined) , state the outcome it received in this test.
inactive

Given O=C(NCCc1c[nH]c2ccccc12)c1cccnc1 , state the outcome it received in this test.
inactive

Given COc1ccc(S(=O)(=O)N2c3ccc(Cl)cc3[C@@](O)(c3ccccc3Cl)[C@H]2C(=O)N2CCC[C@@H]2C(N)=O)cc1OC , state the outcome it received in this test.
inactive

Given COc1cc(C(=O)NCc2ccc(OCCN(C)C)cc2)cc(OC)c1OC , state the outcome it received in this test.
inactive

Given CCCCCCCCCCCCCCCC(=O)O , state the outcome it received in this test.
inactive

Given CCCCCCCCOc1ccc(C(=O)c2ccccc2)c(O)c1 , state the outcome it received in this test.
inactive

Given CC(C)(C)NCC(O)COc1cccc2c1C[C@H](O)[C@H](O)C2 (some centres undefined) , state the outcome it received in this test.
inactive

Given c1ccc(-c2nc[nH]c2-c2ccccc2)cc1 , state the outcome it received in this test.
inactive

Given CN1CCN(C2=Nc3cc(F)ccc3Cc3ccccc32)CC1 , state the outcome it received in this test.
inactive

Given O=S(c1cc(Cl)cc(Cl)c1O)c1cc(Cl)cc(Cl)c1O , state the outcome it received in this test.
inactive

Given CC1=C(C(=O)O)N2C(=O)[C@@H](NC(=O)[C@H](N)c3ccccc3)[C@H]2SC1 , state the outcome it received in this test.
inactive

Given CCOC(=O)Nc1ccc2c(c1)N(C(=O)CCN1CCOCC1)c1ccccc1S2 , state the outcome it received in this test.
inactive

Given CN1CCC(OC(c2ccccc2)c2ccccc2)CC1 , state the outcome it received in this test.
inactive

Given NCCNC(=O)c1ccc(Cl)cn1 , state the outcome it received in this test.
inactive

Given CC[N+](C)(CC)CCOC(=O)C(O)(c1ccccc1)C1CCCCC1 (centres undefined) , state the outcome it received in this test.
inactive

Given CCOC(=O)[C@H](CCc1ccccc1)N[C@@H](C)C(=O)N1[C@H](C(=O)O)C[C@@H]2CCC[C@@H]21 , state the outcome it received in this test.
inactive

Given CN(Cc1ccc(C(C)(C)C)cc1)Cc1cccc2ccccc12 , state the outcome it received in this test.
inactive

Given O=C(c1ccc(F)cc1)C1CCN(CCn2c(=S)[nH]c3ccccc3c2=O)CC1 , state the outcome it received in this test.
active

Given COc1cc(C(=O)N2CCCCCCC2)cc(OC)c1OC , state the outcome it received in this test.
inactive

Given CC1(COc2ccc(CC3SC(=O)NC3=O)cc2)CCCCC1 (centres undefined) , state the outcome it received in this test.
inactive

Given NS(=O)(=O)c1cc(C(=O)O)cc(N2CCCC2)c1Oc1ccccc1 , state the outcome it received in this test.
inactive

Given CCOCCn1c(N2CCCN(C)CC2)nc2ccccc21 , state the outcome it received in this test.
inactive

Given CCCCCCCCCCCCOCCOCCOCCOCCOCCOCCOCCOCCOCCO , state the outcome it received in this test.
active

Given O=C(Oc1cccc2cccnc12)c1ccccc1 , state the outcome it received in this test.
active

Given CCN1CCCC(OC(=O)C(c2ccccc2)c2ccccc2)C1 (centres undefined) , state the outcome it received in this test.
inactive

Given CN(C)CCOC(=O)C(c1ccccc1)C1(O)CCCC1 (centres undefined) , state the outcome it received in this test.
inactive

Given COc1ccc(CCN(C)CCCN2CCc3cc(OC)c(OC)cc3CC2=O)cc1OC , state the outcome it received in this test.
inactive
